This listing pairs compounds with measured Saturation solubility.
Assay: Saturation solubility in water (HPLC)
Type: physicochemical
Settings: stirring at room temperature for 12 h, HPLC
Please state the figure in µg/mL; there is no need to write the unit.

Would you please look over these solved cases?
compound	value observed
O=C(O)CNC(=O)C1C(=O)N(C2CCCCC2)C(=O)N(C2CCCCC2)C1=O [Crystal form CS9, reference compound]	19.4
O=C(O)CNC(=O)C1C(=O)N(C2CCCCC2)C(=O)N(C2CCCCC2)C1=O [Crystal form K]	23.36

Please give the measured Saturation solubility for this compound: O=C(O)CNC(=O)C1C(=O)N(C2CCCCC2)C(=O)N(C2CCCCC2)C1=O [Crystal form CS1, reference compound]
24.48

Please give the measured Saturation solubility for this compound: O=C(O)CNC(=O)C1C(=O)N(C2CCCCC2)C(=O)N(C2CCCCC2)C1=O [Crystal form M]
42.47
